protocol.details: Cytotoxicity against human IGROV-ET cells after 48 hrs by SRB assay
Type: functional
conditions: read-out: LC50 (the source's name)
# if measured CC50 < 1000 nM: true (1)  # else: false (0)

Decide: CC50 of C/C=C1\NC(=O)[C@H](Cc2ccccc2)NC(=O)[C@@H](C(C)C)NC(=O)[C@@H]([C@H](C)CC)NC(=O)[C@H](NC(=O)[C@H](NC(=O)[C@H](CCCN)NC(=O)[C@H]2CCCN2C(=O)[C@H](NC(=O)[C@@H](NC(=O)[C@H](CCCN)NC(=O)[C@H](NC(=O)CCCC(C)C)C(C)C)C(C)C)C(C)C)[C@H](C)CC)[C@H](C)OC(=O)[C@H](C(C)C)NC1=O strictly below 1000 nM?
true (1)

Threshold test, CC50 < 1000 nM: C/C=C1\NC(=O)[C@H](Cc2ccccc2)NC(=O)[C@@H](C(C)C)NC(=O)[C@@H]([C@H](C)CC)NC(=O)[C@H](NC(=O)[C@H](NC(=O)[C@H](CCCN)NC(=O)[C@H]2CCCCN2C(=O)[C@H](NC(=O)[C@@H](NC(=O)[C@@H](NC(=O)[C@H](NC(=O)CC[C@@H](C)CC)C(C)C)[C@@H](C)O)C(C)C)C(C)C)[C@H](C)CC)[C@H](C)OC(=O)[C@H](C(C)C)NC1=O
true (1)

# check: CC50 < 1000 nM for C/C=C1\NC(=O)[C@H](Cc2ccccc2)NC(=O)[C@@H](C(C)C)NC(=O)[C@@H]([C@H](C)CC)NC(=O)[C@H](NC(=O)[C@H](NC(=O)[C@H](CCCN)NC(=O)[C@H]2CCCN2C(=O)[C@H](NC(=O)[C@@H](NC(=O)[C@@H](NC(=O)[C@@H](C(C)C)N(CCCCCC)CCCCCC)[C@@H](C)O)C(C)C)C(C)C)[C@H](C)CC)[C@H](C)OC(=O)[C@H](C(C)C)NC1=O
false (0)

CC50 strictly < 1000 nM for this compound? C/C=C1\NC(=O)[C@H](Cc2ccccc2)NC(=O)[C@@H](C(C)C)NC(=O)[C@@H]([C@H](C)CC)NC(=O)[C@H](NC(=O)[C@H](NC(=O)[C@H](CCCNC(=O)c2cc(F)c(F)c(F)c2F)NC(=O)[C@H]2CCCN2C(=O)[C@H](NC(=O)[C@@H](NC(=O)[C@@H](NC(=O)[C@H](NC(=O)CCCC(C)C)C(C)C)[C@@H](C)O)C(C)C)C(C)C)[C@H](C)CC)[C@H](C)OC(=O)[C@H](C(C)C)NC1=O
true (1)

# TODO verify CC50 < 1000 nM strictly for this compound: C/C=C1\NC(=O)[C@H](Cc2ccccc2)NC(=O)[C@@H](C(C)C)NC(=O)[C@@H]([C@H](C)CC)NC(=O)[C@H](NC(=O)[C@H](NC(=O)[C@H](CCCN)NC(=O)[C@H]2CCCN2C(=O)[C@H](NC(=O)[C@@H](NC(=O)[C@@H](NC(=O)[C@H](NC(=O)CCCC(C)C)C(C)C)[C@@H](C)O)C(C)C)C(C)C)[C@H](C)CC)CNC(=O)[C@H](C(C)C)NC1=O
true (1)
